Where these numbers come from: patent US20220195063A1

Property: EC50; scope: individual binders
- Experimental target: T1, human SIRPα1 (huSIRPα1), protein antigen (human, UniProt P78324 31-370, limits assumed, biotinylated in the SPR assay)
- T1 construct: Coated on the plate in ELISA, biotinylated and captured in SPR; also called v2
- T1 sequence (P78324 other isoform, or with tags, fused parts or gaps limits assumed): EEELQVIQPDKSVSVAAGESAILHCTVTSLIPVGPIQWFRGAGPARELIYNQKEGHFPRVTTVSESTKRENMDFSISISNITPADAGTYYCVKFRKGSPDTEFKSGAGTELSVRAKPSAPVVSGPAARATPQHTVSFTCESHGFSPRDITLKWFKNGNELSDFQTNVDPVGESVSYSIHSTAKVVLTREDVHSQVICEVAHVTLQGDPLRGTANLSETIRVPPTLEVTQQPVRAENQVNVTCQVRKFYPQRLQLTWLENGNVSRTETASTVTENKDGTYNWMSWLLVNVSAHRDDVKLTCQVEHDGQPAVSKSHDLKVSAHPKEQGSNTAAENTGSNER
- Test: ELISA, antigen coated
Use µg/mL as the unit, but write only the number.

Could you share which EC50 value was measured for anti-SIRPα antibody 1 (antibody, human IgG1, kappa, L234A L235A, V domains shown, Rabbit variable regions on human IgG1 LALA / kappa) VH: QSVEESGGRLVTPGTPLTLTCTVSGIDLSSYAMSWVRQAPGKGLEWIGIISSGGITYYASWAKGRFTISKTSTTVDLKIPSPTTEDTATYFCARSLWAASNYYMALWGPGTLVTVSS VL: AIKMTQTPASVSAAVGGTVSINCQASEDIESYLAWYQQKPGQPPKLLIYRASTLASGVSSRFKGSGSGTQFTLTISDLESADAATYYCLGDYYSSSGDTGAFGGGTEVVVKR ?
0.039

One more binder: anti-SIRPα antibody 3 (antibody, human IgG1, kappa, L234A L235A, V domains shown, Rabbit variable regions on human IgG1 LALA / kappa) VH: QSVEESGGRLVTPGTPLTLACTVSGFSLISYYISWVRQAPEKGLEYIGIINIGGGASYASWAKGRFTISKTSTTVDLKITSPTPEDTATYFCAMSYGMDTGAFNIWGPGTLVTVSL VL: AQVLTQTPASVSAAVGGTVTISCQSSESVYKNNFLSWYQQKPGKPPKLLIYGASTLASGVPSRFKGSGSGTQFTLTISDLESDDAATYFCQGGYRTDIYPFGGGTEVVVKR
0.015

One more binder: anti-SIRPα antibody 8 (antibody, human IgG1, kappa, L234A L235A, V domains shown, Rabbit variable regions on human IgG1 LALA / kappa) VH: QSLEESGGRLVTPGTPLTLTCTASGVDLSNYAMGWVRQAPGKGLEWIGIIYAGGSTSYATWAKGRFTISKTSTTMDLKMTSPTTEDTATYFCARHRSDGYDYFHLWGPGTLVTVSL VL: AIDMTQTPASVSEPVGGTVTIKCQASQSISSWLAWYQQKPGQRPKLLIYDASKLASGVPSRFSGSGSGTEFTLTISGVQSDDAAAYYCQQGYAVSYVENIFGGGTEVVVKR
0.019

Here's the next entry for you.
Could you share which EC50 value was measured for 29AM4-5huIgG1LALA (antibody, V domains shown, HAVT20 leader left out) VH: EVQLVESGGGLVQPGGSLRLSCAASGFNISYYFIHWVRQAPGKGLEWVASVYSSFGYTYYADSVKGRFTISADTSKNTAYLQMNSLRAEDTAVYYCARFTFPGLFDGFFGAYLGSLDYWGQGTLVTVSS VL: DIQMTQSPSSLSASVGDRVTITCRASQSVSSAVAWYQQKPGKAPKLLIYSASSLYSGVPSRFSGSRSGTDFTLTISSLQPEDFATYYCQQAVNWVGALVTFGQGTKVEIKR ?
0.009
